# System: lipid peroxidation (cerebral tissue homogenate)
# METHOD_DESCRIPTION: Inhibition test of lipid peroxidation (malondialdehyde formation, thiobarbituric acid method)
# ASSAY_CONDITIONS: 5 μM, rat cerebral tissue supernatant, pH 7.4, 37° C., 30 minutes
REPORTED_ENDPOINT: Inhibition (%) Dose 5 μM
Give a bare numeral; the unit % is implied.

Reference set, count: 2
* Nc1n[nH]c(N(CCSSCCN(Cc2cccc([N+](=O)[O-])c2)c2nc(N)n[nH]2)Cc2cccc([N+](=O)[O-])c2)n1 [Compound 19] | 21.3
* Nc1n[nH]c(N(CCSSCCN(Cc2ccc(OCc3ccccc3)cc2)c2nc(N)n[nH]2)Cc2ccc(OCc3ccccc3)cc2)n1 [Compound 18] | 71.7

Documented Inhibition (%) Dose 5 μM of Nc1n[nH]c(N(CCSSCCN(Cc2ccc([N+](=O)[O-])cc2)c2nc(N)n[nH]2)Cc2ccc([N+](=O)[O-])cc2)n1 [Compound 20] : 35.2

Documented Inhibition (%) Dose 5 μM of Nc1n[nH]c(N(CCSSCCN(Cc2cccc3ccccc23)c2nc(N)n[nH]2)Cc2cccc3ccccc23)n1 [Compound 38] : 56.8

Documented Inhibition (%) Dose 5 μM of Cc1ccccc1CN(CCSSCCN(Cc1ccccc1C)c1nc(N)n[nH]1)c1nc(N)n[nH]1 [Compound 24] : 41.6

Documented Inhibition (%) Dose 5 μM of Nc1n[nH]c(N(CCSSCCN(Cc2ccc(-c3ccccc3)cc2)c2nc(N)n[nH]2)Cc2ccc(-c3ccccc3)cc2)n1 [Compound 34] : 55.8

Documented Inhibition (%) Dose 5 μM of COc1ccc(CN(CCSSCCN(Cc2ccc(OC)cc2)c2nc(N)n[nH]2)c2nc(N)n[nH]2)cc1 [Compound 17] : 22.2
